Reference source for all entries: PubChem BioAssay (NCI)

# Test system: TK-10 renal
# test.description: NCI tumour cell line growth inhibition, 48 h
endpoint.label: TGI

compound	measurement
c1ccc2c(c1)CCN1CCc3c([nH]c4ccccc34)C21 (stereo not drawn)	> 100 µM
O=c1oc2cccnc2n1CCN1CCN(c2ccc(Oc3ccccc3)cc2)CC1	> 100 µM
O=C1Nc2ccccc2/C1=C/c1cn(C(=O)c2c(Cl)cccc2Cl)c2ccccc12	56 µM
O=C(Nc1ccc(Cl)cc1)c1ccc([N+](=O)[O-])o1	5.32 µM
Clc1ccc2c(c1)CC1C[N+]3=C(CCCC3)C1=C2 (stereo not drawn)	> 100 µM
Nc1ccc(C(=O)NN2C(=O)C(Cl)C2c2ccc([N+](=O)[O-])cc2)cc1 (stereo not drawn)	33.5 µM
C=C(C)[C@@H]1CC[C@]2(C(=O)O)CC[C@]3(C)[C@H](CC[C@@H]4[C@@]5(C)C[C@@H](CC#Cc6ccc(Br)cc6)C(=O)C(C)(C)[C@@H]5CC[C@]43C)[C@@H]12	> 100 µM
CCOC(=O)/C=C(\C(=O)OCC)n1cnc2c(N)ncnc21	17.3 µM
N#CCC12CC=CCC1=C(O)C(=O)c1ccc(O)cc12 (stereo not drawn)	> 100 µM
CC(=O)N1C(C(=O)NNc2ccccc2)CSC1c1ccccc1 (stereo not drawn)	> 100 µM
COc1ccc(CC2NCCc3cc(OC)c(OC)cc32)cc1 (stereo not drawn)	> 100 µM
COc1ccc2cc3[n+](cc2c1OC)CCc1cc2c(cc1-3)OCO2	> 100 µM
Cc1ccc(NC(=O)COC(=O)c2cccc3c(=O)c4ccccc4[nH]c23)cc1	> 100 µM
N#CCc1ccc(/C(C#N)=C2/OC(=N)C(c3ccc(CC#N)cc3)C2=O)cc1 (stereo not drawn)	> 100 µM
CC(=O)[O-].[Ni].c1ccc(/C(=N\Nc2ccccn2)c2ccccn2)cc1	20.7 µM
O=C1Cc2ccccc2N1c1c(Cl)cccc1Cl	> 100 µM
CCOC(=O)NC(NNc1ccc([N+](=O)[O-])cc1[N+](=O)[O-])(C(F)(F)F)C(F)(F)F	96 µM
Cn1c(=O)c2c(ncn2CCSS(=O)(=O)O)n(C)c1=O	> 100 µM
COc1cc2c3c(n(CCCNC(=O)OCC4c5ccccc5-c5ccccc54)c(=O)c2cc1OC)-c1cc2c(cc1C3=O)OCO2	> 100 µM
CCOCC(=O)N[C@H]1CCc2cc(OC(=O)COCC)c(OC)c(OC)c2-c2ccc(SC)c(=O)cc21	> 100 µM
CNC(=O)c1n[nH]n(Cc2ccccc2)c1=S	> 100 µM
O=C1/C(=C/c2ccc(Cl)cc2)CN(Cc2cn(CCNc3ccnc4cc(Cl)ccc34)nn2)C/C1=C\c1ccc(Cl)cc1	1.6 µM
O=Cc1[nH]c(=O)[nH]c(=O)c1CCl	> 100 µM
Cc1cc(Cl)ccc1NC(=O)CC1SC(N)=NC1=O (stereo not drawn)	> 100 µM
Cc1ccc([N+](=O)[O-])cc1NC(=O)C(=O)Cc1cc(=O)oc2cc(O)ccc12	> 100 µM
C=CCC12CC(=O)C=C1CCC1(C2)OCCO1 (stereo not drawn)	> 100 µM
Cc1cc(C)nc(NS(=O)(=O)c2ccc(NNC(=O)c3cccc4c(NNc5ccc(S(=O)(=O)Nc6nc(C)cc(C)n6)cc5)c5ccccc5nc34)cc2)n1	67.7 µM
O=C1CSC(=S)N1Cc1cccnc1	7.14 µM
O=C1/C(=C/c2ccc([N+](=O)[O-])o2)Oc2ccccc21	3.02 µM
COc1cc(-n2cc(-c3ccc(F)cc3)[nH]c2=S)cc(OC)c1OC	> 100 µM
c1ccc2c(Nc3ccc(Oc4ccc(Nc5c6ccccc6nc6ccccc56)cc4)cc3)c3ccccc3nc2c1	0.97 µM
O=C(Nc1nncs1)NS(=O)(=O)n1cnc2ccccc21	> 100 µM
NC(CCCNc1cccc(O)c1)C(=O)O (stereo not drawn)	> 100 µM
